Measured values drawn from the supplement of paper PMC9170038 for this set.

- Test system: MS2 coat protein
- protocol: apparent KD of MS2 coat protein; higher = weaker reporter binding
- conditionSet: Eterna round: R107; input ligand: theophylline 2 mM
Record form. Attribute: apparent KD of MS2 coat protein. Fill in for each entry.
Quick note: give the figure in µM, leave out the unit.

Ask | What value of apparent KD of MS2 coat protein has been reported for the following sequence? AUACAUGAGGAUCACCCAUGUCAUACAGAAGGAGCGUCACAUAAGACAGGUAGGUCGCUGAUAUAUACGUCACGAAUAGUGACGA [JR_SSArginiA_Sub017]
Reply | 0.0204

Ask | What value of apparent KD of MS2 coat protein has been reported for the following sequence? UGUAUGUGAUCUGAUACCAGAGUGACGCGAAAGCGAACCUGAGGAUCACCCUGGUAAUAACUCCCUUGGCAGCAGAUCGCAUACU
Reply | 0.0207

Ask | What value of apparent KD of MS2 coat protein has been reported for the following sequence? GGCACAUAGUCGGCCGCCACUACUAACACCUCAGACAACAUGAGGAUCACCCAUGUUCCAGAGUGUAGGACCGGGACUAUGUGCC [Minonka]
Reply | 0.0122

* * *

- Test system: MS2 coat protein
- protocol: apparent KD of MS2 coat protein; designed switch direction (-1 OFF switch, 1 ON switch): -1; higher = weaker reporter binding
- conditionSet: input ligand: none
Record form. Attribute: apparent KD of MS2 coat protein. Fill in for each entry.
Quick note: give the figure in nM, leave out the unit.

Ask | What value of apparent KD of MS2 coat protein has been reported for the following sequence? ACUAGAUGAGGAUAUACACAUUUUAGUGUUCCUCUAGAUUAACAUGAGGAUCACCCAUGUAGAAGGCAUCAAUU [Exclusion 2 - 11] (Eterna round: R96, puzzle: Exclusion 2)
Reply | 63

Ask | What value of apparent KD of MS2 coat protein has been reported for the following sequence? CUGAGUCUAGGAUAUACAUGAGGAUCACCCAUGUAAAGUAGCUUGCGUACAGGCAGAUGUAGAAGGAGAUUCGG [Mod of JL 10 - Jieux - Exclusion 3] (Eterna round: R97, puzzle: Exclusion 3)
Reply | 24.6

Ask | What value of apparent KD of MS2 coat protein has been reported for the following sequence? ACACGGCGAGGAUAUACAUGAGGAUCACCCAUGUGUCGGCCGGUACGGUAGCACUAGUGUAGAAGGCGCAUUGG [EX3 #38] (Eterna round: R97, puzzle: Exclusion 3)
Reply | 31.1

Ask | What value of apparent KD of MS2 coat protein has been reported for the following sequence? UUAGGCUCUGGUUCGUAUUACAUGAGGAUCACCCAUGUGGCCAAGUGAGUUGGGCCGGUCAUGAUUUUGCUCGUUAU [Eternabot (L2) Solution 13] (Eterna round: R97, puzzle: Sensor, turn-off variant 1)
Reply | 59.4

Ask | What value of apparent KD of MS2 coat protein has been reported for the following sequence? AACAGUCUAGAGGAUAUGUGCGAUUAAUAUCGUGCAGAAGGCUGGACAUGAGGAUCACCCAUGUAAAUACUACC [Omei Ex6 A16] (Eterna round: R97, puzzle: Exclusion 6)
Reply | 34

* * *

Record form. Attribute: apparent KD of K4 kissing-loop reporter. Fill in for each entry.
- Test system: K4 kissing-loop RNA reporter
- protocol: apparent KD of K4 kissing-loop reporter; higher = weaker reporter binding
- conditionSet: Eterna round: R107; input ligand: none
Quick note: give the figure in nM, leave out the unit.

Ask | Which measured apparent KD of K4 kissing-loop reporter belongs to AGACGCCAGUCGGCCGCCACUCACAGCAGUGAUGUUGCUGAGAAUCUAGAAGAGUGAUGUUCUUAGAGGACCGGGACUCCAGUCG [Same State Tryptophan B GF 7] , tested on K4 kissing-loop RNA reporter?
Reply | 383

Ask | Which measured apparent KD of K4 kissing-loop reporter belongs to CAUGGACUUCCAGUGUAUCCAUGACUGGAUACCAGUCAGGAAACUGACCCUUGGCAGCCAGAACUGGAAGUGAUGUUUCCAGUAA [Design8] , tested on K4 kissing-loop RNA reporter?
Reply | 244

Ask | Which measured apparent KD of K4 kissing-loop reporter belongs to UGUACCGAGUCAGGAUAUGGCGUCGAAAGACGAAAACCAGUGAUGUUGGAAAUCUGCGAAAGCAGUCCAGAAGGGACUUGGUACU [FmnBS 25 #SwitchBubble #StaticStem #DoubleMagnetSystem] , tested on K4 kissing-loop RNA reporter?
Reply | 266

Ask | Which measured apparent KD of K4 kissing-loop reporter belongs to ACCAUCAAAGAUGGCCAGGACUCCGCUGAUACCAGAGUGAAAACACUCCCUUGGCAGCAGGUGAGUGAUGUUCACGAGUCCUGGA [Omel KL Theo A SS B v6] , tested on K4 kissing-loop RNA reporter?
Reply | 476

Ask | Which measured apparent KD of K4 kissing-loop reporter belongs to UGCGCUGUGUACUGAAAUGUUCUGCGGGAUACCAGAGUCUUUUUAUUCCCUUGGCAGCUUGAGUGAUGUUUGAUGCCGUUCUUGU [tffeymullin] , tested on K4 kissing-loop RNA reporter?
Reply | 513

Ask | Which measured apparent KD of K4 kissing-loop reporter belongs to UGAUACCAGACUGAUACCAGCAAGUGAUGUUUGCUGAUCUAAAGCAGUCAAAGACUGCCUUGCCCUUGGCAGCAGUCUGGUAUCU [TheoBX 25 #SwitchBubble #StaticStem] , tested on K4 kissing-loop RNA reporter?
Reply | 96.6

Ask | Which measured apparent KD of K4 kissing-loop reporter belongs to UCGGACCCUGGAGGAUAUGAGUCUAGUGAUGUUAGGCGGUCCAUGCGCGUGGCGCGUUAUGCCCUUUUAGAAGGCCAGGGUCCGA [#2 Exclusion - FMN B Attempt #15 (HarryS)] , tested on K4 kissing-loop RNA reporter?
Reply | 104

Ask | Which measured apparent KD of K4 kissing-loop reporter belongs to AGACUACCACACUGUCAAUAGACAGUGGACUAGGAUAUGCUGAUAAGCAGAAGGAGUGAUGUUCCUUGGUAGUCAAUAAAAUAAU [FmnAX 13 G28+U67] , tested on K4 kissing-loop RNA reporter?
Reply | 253

Ask | Which measured apparent KD of K4 kissing-loop reporter belongs to GCGAUCUGCAUCGAUACCAGCCCAGUGAUGUUGGGCUGCUCUCCAUGGGUGCCAGACACGGGCCCUUGGCAGCGAGGUAGAGCCC [Maonzaa] , tested on K4 kissing-loop RNA reporter?
Reply | 109

Ask | Which measured apparent KD of K4 kissing-loop reporter belongs to GCCGUAGAUUGAAGGAGCGAGGCUACUUAAAGACCGAGUGAUGUUCGGGAACGUGAAACUCCUCAGGUAGGUCGCAAUCUACGGC , tested on K4 kissing-loop RNA reporter?
Reply | 280

Ask | Which measured apparent KD of K4 kissing-loop reporter belongs to CGUUUAGUGAUGUUAAGCGUCCACUACGAUACCAGAACUAUAACCUUCCCUUGGCAGCGUUUAUAUUGUAACUCAUGUGUUAAUU [theeternabot_exclusion_KL_Theo_A_11] , tested on K4 kissing-loop RNA reporter?
Reply | 474

Ask | Which measured apparent KD of K4 kissing-loop reporter belongs to ACACUCGGCUCGGCCGCCACUCCAGUGAUGUUGGAGUCAUAGCUAUGACGAGAAGAGCGUUUUCGGAGGACCGGGAGCUCACAGG [Leveeder] , tested on K4 kissing-loop RNA reporter?;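 note: bound reporter read as fluorescence of individual clusters on recovered sequencing chips by microscopy, with normalized cluster intensities fitted with a binding model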
Reply | 359
